test system: platelet aggregation; assay: Platelet aggregation assay, ADP and/or collagen (Example 45); assay type: in vivo, cynomolgus monkeys; conditions: day 64 (with collagen); escalating dose regimen
Recorded metric: platelet aggregation (Ohms)
The answer is to be given in Ohms; state only the numeric part.

In: Hello, please tell me recorded platelet aggregation for this one: ISIS 416864: MOE gapmer, nucleobases 1275 to 1318 of SEQ ID NO: 1 (Table 8) (antisense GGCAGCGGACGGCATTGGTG; MOE gapmer, wing and gap sizes not given here)
Out: 17

In: Hello, please tell me recorded platelet aggregation for this one: ISIS 416838: MOE gapmer, nucleobases 1018 to 1042 of SEQ ID NO: 1 (Table 6) (antisense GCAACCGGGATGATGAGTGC; MOE gapmer, wing and gap sizes not given here)
Out: 13

In: Hello, please tell me recorded platelet aggregation for this one: ISIS 416850: MOE gapmer, nucleobases 1275 to 1318 of SEQ ID NO: 1 (Table 8) (antisense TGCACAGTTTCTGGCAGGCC; MOE gapmer, wing and gap sizes not given here)
Out: 17

In: Hello, please tell me recorded platelet aggregation for this one: ISIS 416858: MOE gapmer, nucleobases 1275 to 1318 of SEQ ID NO: 1 (Table 8) (antisense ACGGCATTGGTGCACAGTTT; MOE gapmer, wing and gap sizes not given here)
Out: 14

In: Hello, please tell me recorded platelet aggregation for this one: ISIS 417002: MOE gapmer, nucleobases 1275 to 1318 of SEQ ID NO: 1 (Table 8) (antisense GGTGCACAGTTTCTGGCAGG; MOE gapmer, wing and gap sizes not given here)
Out: 18

---

test: Bleeding assay, Surgicutt Jr. device (Example 45); type: in vivo, cynomolgus monkeys; set-up: unit not given here; details: day 36; escalating dose regimen
Exercise: state measured bleeding time for each of the substances provided.
Lab note: write the figure by itself, no unit.

In: Hello, please tell me recorded bleeding time for this one: ISIS 416858: MOE gapmer, nucleobases 1275 to 1318 of SEQ ID NO: 1 (Table 8) (antisense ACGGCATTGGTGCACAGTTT; MOE gapmer, wing and gap sizes not given here)
Out: 206

In: Hello, please tell me recorded bleeding time for this one: ISIS 416838: MOE gapmer, nucleobases 1018 to 1042 of SEQ ID NO: 1 (Table 6) (antisense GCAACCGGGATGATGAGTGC; MOE gapmer, wing and gap sizes not given here)
Out: 166

In: Hello, please tell me recorded bleeding time for this one: ISIS 416850: MOE gapmer, nucleobases 1275 to 1318 of SEQ ID NO: 1 (Table 8) (antisense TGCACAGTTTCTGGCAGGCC; MOE gapmer, wing and gap sizes not given here)
Out: 137

In: Hello, please tell me recorded bleeding time for this one: ISIS 417002: MOE gapmer, nucleobases 1275 to 1318 of SEQ ID NO: 1 (Table 8) (antisense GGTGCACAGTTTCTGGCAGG; MOE gapmer, wing and gap sizes not given here)
Out: 186

In: Hello, please tell me recorded bleeding time for this one: ISIS 416864: MOE gapmer, nucleobases 1275 to 1318 of SEQ ID NO: 1 (Table 8) (antisense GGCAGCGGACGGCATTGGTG; MOE gapmer, wing and gap sizes not given here)
Out: 205

---

test: Kidney function, BUN, urine protein to creatinine ratio in cynomolgus monkeys (Example 46); type: in vivo; settings: Day 55
Strand notation (5' to 3'): a small letter for the sugar, then the base; units joined by * are phosphorothioate-linked, units joined directly phosphodiester-linked; [ ] holds rarer units or linkages, { } end groups; capitals alone tell only the bases. e = 2'-O-(2-methoxyethyl) (MOE); [5mC] = 5-methylcytosine; d = 2'-deoxy (DNA)
Recorded metric: BUN levels (mg/dL)
The answer is to be given in mg/dL; state only the numeric part.

In: Hello, please tell me recorded BUN levels for this one: ISIS 445531: 5-8-5 or 6-8-6 MOE microwalk gapmer (Table 44) (antisense eG*eG*e[5mC]*eA*eT*dT*dG*dG*dT*dG*d[5mC]*dA*d[5mC]*eA*eG*eT*eT*eT)
Out: 22

In: Hello, please tell me recorded BUN levels for this one: ISIS 449708: 3-8-3, 4-8-4, 2-10-2, 3-10-3 or 4-10-4 MOE microwalk gapmer (Table 46) (antisense eA*e[5mC]*eA*dG*dT*dT*dT*d[5mC]*dT*dG*dG*e[5mC]*eA*eG)
Out: 23

In: Hello, please tell me recorded BUN levels for this one: ISIS 449711: 3-8-3, 4-8-4, 2-10-2, 3-10-3 or 4-10-4 MOE microwalk gapmer (Table 46) (antisense eA*e[5mC]*dA*dG*dT*dT*dT*d[5mC]*dT*dG*dG*d[5mC]*eA*eG)
Out: 23

In: Hello, please tell me recorded BUN levels for this one: ISIS 416858: MOE gapmer, nucleobases 1275 to 1318 of SEQ ID NO: 1 (Table 8) (antisense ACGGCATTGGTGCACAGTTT; MOE gapmer, wing and gap sizes not given here)
Out: 24

In: Hello, please tell me recorded BUN levels for this one: ISIS 449710: 3-8-3, 4-8-4, 2-10-2, 3-10-3 or 4-10-4 MOE microwalk gapmer (Table 46) (antisense e[5mC]*eA*e[5mC]*dA*dG*dT*dT*dT*d[5mC]*dT*dG*dG*d[5mC]*eA*eG*eG)
Out: 23
